Below, each entry is listed with its recorded logP.
test-method-notes: Lipophilicity, logP in n-octanol/PBS of radiolabeled PSMA inhibitors
Format: physicochemical
study-conditions: pH 7.4
Procedure: The radiolabeled PSMA inhibitor (0.5 to 1.0 MBq) dissolved in PBS (500 μL, pH=7.4), was added to n-octanol (500 μL) in a reaction vial (1.5 mL), which was rigorously vortexed for 3 min (n=6). For quantitative phase separation, the mixture was centrifuged at 6,000 g for 5 min (Biofuge 15, Heraus Sepatech, Osterode, Germany). The activity from samples of each phase (100 μL) were measured in a γ-counter to obtain the log P(o/w) value.
*1 amine or outer side, *2 acyl side, *3 side chain or, on linkers, in order; H or OH if unused. Where a SMILES comes first, the peptide text is derived from it. Side-chain parts run from the residue outwards. [ ]: non-standard residue; d: D form. The star is where a group is joined. ξ: configuration not given here. ξOrn(Nα-γGlu(Nα-CO-Glu)) = O=C(O)CC[C@H](NC(=O)N[C@@H](CCC(=O)NC(CCCN*)C(=O)O)C(=O)O)C(=O)O; DOTAGA = O=C(O)CN1CCN(CC(=O)O)CCN(C(CCC(=O)*)C(=O)O)CCN(CC(=O)O)CC1; Phe(4-NO2) = N[C@@H](Cc1ccc([N+](=O)[O-])cc1)C(=O)O; d2Nal = N[C@H](Cc1ccc2ccccc2c1)C(=O)O; Suc = O=C(CCC(=O)[*:2])[*:1]
Output: the number by itself.

[
  {
    "compound": "O=C(O)CC[C@H](NC(=O)N[C@@H](CCC(=O)NC(CCCNC(=O)CCC(=O)NCCCC[C@@H](NC(=O)[C@@H](Cc1ccc2ccccc2c1)NC(=O)[C@@H](Cc1ccc(O)cc1)NC(=O)[C@H](Cc1ccc([N+](=O)[O-])cc1)NC(=O)CCC(C(=O)O)N1CCN(CC(=O)O)CCN(CC(=O)O)CCN(CC(=O)O)CC1)C(=O)O)C(=O)O)C(=O)O)C(=O)O (stereo partly shown) [PSMA-52] ({DOTAGA}-[Phe(4-NO2)][dY][d2Nal][dK]([Suc-ξOrn(Nα-γGlu(Nα-CO-Glu))])-OH)",
    "logP": -4.11
  },
  {
    "compound": "Nc1ccc(C[C@H](NC(=O)CCC(C(=O)O)N2CCN(CC(=O)O)CCN(CC(=O)O)CCN(CC(=O)O)CC2)C(=O)N[C@H](Cc2ccc(O)cc2)C(=O)N[C@H](Cc2ccc3ccccc3c2)C(=O)N[C@H](CCC(=O)Nc2ccc(C(=O)NCCCC(NC(=O)CC[C@H](NC(=O)N[C@@H](CCC(=O)O)C(=O)O)C(=O)O)C(=O)O)cc2)C(=O)O)cc1 (stereo partly shown) [PSMA-60]",
    "logP": -3.85
  },
  {
    "compound": "Nc1ccc(C[C@H](NC(=O)CCC(C(=O)O)N2CCN(CC(=O)O)CCN(CC(=O)O)CCN(CC(=O)O)CC2)C(=O)N[C@H](Cc2ccc(O)cc2)C(=O)N[C@H](Cc2ccc3ccccc3c2)C(=O)N[C@H](CCCCNC(=O)[C@@H](CC(=O)NCCC[C@@H](NC(=O)CC[C@H](NC(=O)N[C@@H](CCC(=O)O)C(=O)O)C(=O)O)C(=O)O)NC(=O)c2cc(C(=O)O)cc(C(=O)O)c2)C(=O)O)cc1 (stereo partly shown) [PSMA-62]",
    "logP": -4.12
  }
]

Please look at the following compound next.
Incoming: So what's the measured logP for this one? O=C(O)CC[C@H](NC(=O)N[C@@H](CCC(=O)NC(CCCNC(=O)C[C@@H](NC(=O)c1cc(C(=O)O)cc(C(=O)O)c1)C(=O)NCCCC[C@@H](NC(=O)[C@@H](Cc1ccc2ccccc2c1)NC(=O)[C@@H](Cc1ccc(O)cc1)NC(=O)[C@H](Cc1ccc2ccccc2c1)NC(=O)CCC(C(=O)O)N1CCN(CC(=O)O)CCN(CC(=O)O)CCN(CC(=O)O)CC1)C(=O)O)C(=O)O)C(=O)O)C(=O)O (stereo partly shown) [PSMA-71]
Outgoing: -4.13
